subjectOfTest: bradykinin receptors on intestinal (ileal longitudinal) smooth muscle (Cavia porcellus, UniProt O70526)
Construct: The longitudinal muscle was separated from the underlying circular muscle; from tissue; host or cells: guinea pig ileal longitudinal smooth muscle strips
Sequence (O70526 1-372): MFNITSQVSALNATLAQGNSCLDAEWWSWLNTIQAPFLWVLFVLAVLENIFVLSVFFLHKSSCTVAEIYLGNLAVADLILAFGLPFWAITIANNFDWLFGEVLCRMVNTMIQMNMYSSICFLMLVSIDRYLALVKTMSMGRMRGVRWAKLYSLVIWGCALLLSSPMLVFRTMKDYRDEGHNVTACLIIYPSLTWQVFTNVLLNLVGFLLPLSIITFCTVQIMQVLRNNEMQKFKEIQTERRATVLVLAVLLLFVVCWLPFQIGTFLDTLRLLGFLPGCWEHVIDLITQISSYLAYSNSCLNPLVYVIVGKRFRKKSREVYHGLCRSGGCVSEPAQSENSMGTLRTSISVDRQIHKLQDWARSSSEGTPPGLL
assay: Bradykinin antagonist activity on guinea pig ileal longitudinal smooth muscle (contraction, Schild analysis)
Assay type: cell-based
conditions: antagonism of bradykinin-induced contraction, guinea pig ileum longitudinal muscle, read-out: pA2 (converted)
*1 amine or outer side, *2 acyl side, *3 side chain or, on linkers, in order; H or OH if unused. Where a SMILES comes first, the peptide text is derived from it. [ ]: non-standard residue; d: D form. X2 = O=C([C@@H]1C[C@H](Oc2ccccc2[N+](=O)[O-])CN1[*:1])[*:2]; X1 = O=C([C@@H]1C[C@H](Sc2ccccc2)CN1[*:1])[*:2]; cisHyp = O=C(O)[C@@H]1C[C@H](O)CN1; Hyp = O=C(O)[C@@H]1C[C@@H](O)CN1; dTic = O=C(O)[C@H]1Cc2ccccc2CN1
valueType: Kb (nM)
Numbers only, in nM.

{"columns": ["compound", "valueType", "unitOfMeasurement", "experimentalValue"],
 "data": [
  ["CCO[C@H]1C[C@@H](C(=O)N[C@@H](CCCNC(=N)N)C(=O)O)N(C(=O)[C@H]2Cc3ccccc3CN2C(=O)[C@H](CO)NC(=O)[C@H](Cc2ccccc2)NC(=O)CNC(=O)[C@@H]2C[C@@H](O)CN2C(=O)[C@@H]2CCCN2C(=O)[C@H](CCCNC(=N)N)NC(=O)[C@H](N)CCCNC(=N)N)C1 (H-[dR]RP[Hyp]GFS[dTic][cisHyp](Et)R-OH)", "Kb", "nM", 110],
  ["CCO[C@@H]1C[C@@H](C(=O)N[C@@H](CCCNC(=N)N)C(=O)O)N(C(=O)[C@H]2Cc3ccccc3CN2C(=O)[C@H](CO)NC(=O)[C@H](Cc2ccccc2)NC(=O)CNC(=O)[C@@H]2C[C@@H](O)CN2C(=O)[C@@H]2CCCN2C(=O)[C@H](CCCNC(=N)N)NC(=O)[C@H](N)CCCNC(=N)N)C1 (H-[dR]RP[Hyp]GFS[dTic][Hyp](Et)R-OH)", "Kb", "nM", 51.3],
  ["N=C(N)NCCC[C@@H](N)C(=O)N[C@@H](CCCNC(=N)N)C(=O)N1CCC[C@H]1C(=O)N1C[C@H](O)C[C@H]1C(=O)NCC(=O)N[C@@H](Cc1ccccc1)C(=O)N[C@@H](CO)C(=O)N1Cc2ccccc2C[C@@H]1C(=O)N1C[C@@H](Sc2ccccc2)C[C@H]1C(=O)N[C@@H](CCCNC(=N)N)C(=O)O (H-[dR]RP[Hyp]GFS[dTic][X1]R-OH)", "Kb", "nM", 11.2]
]}

Then there is this compound:
Input line: Any idea what Kb was measured for N=C(N)NCCC[C@@H](N)C(=O)N[C@@H](CCCNC(=N)N)C(=O)N1CCC[C@H]1C(=O)N1C[C@H](O)C[C@H]1C(=O)NCC(=O)N[C@@H](Cc1ccccc1)C(=O)N[C@@H](CO)C(=O)N1Cc2ccccc2C[C@@H]1C(=O)N1C[C@@H](Oc2ccccc2[N+](=O)[O-])C[C@H]1C(=O)N[C@@H](CCCNC(=N)N)C(=O)O (H-[dR]RP[Hyp]GFS[dTic][X2]R-OH) ?
Output line: 141

----------
subjectOfTest: bradykinin receptor (Cavia porcellus)
*1 amine or outer side, *2 acyl side, *3 side chain or, on linkers, in order; H or OH if unused. Where a SMILES comes first, the peptide text is derived from it. [ ]: non-standard residue; d: D form. The star is where a group is joined. X2 = O=C([C@@H]1C[C@H](Oc2ccccc2[N+](=O)[O-])CN1[*:1])[*:2]; X1 = O=C([C@@H]1C[C@H](Sc2ccccc2)CN1[*:1])[*:2]; cisHyp = O=C(O)[C@@H]1C[C@H](O)CN1; Hyp = O=C(O)[C@@H]1C[C@@H](O)CN1; Cyclohexylmethyl = C1CCC(C*)CC1; dTic = O=C(O)[C@H]1Cc2ccccc2CN1
valueType: pKi
Numbers only, as −log10 of the molar value.

{"columns": ["molecule", "subjectOfTest", "pKi"],
 "data": [
  ["N=C(N)NCCC[C@@H](N)C(=O)N[C@@H](CCCNC(=N)N)C(=O)N1CCC[C@H]1C(=O)N1C[C@H](O)C[C@H]1C(=O)NCC(=O)N[C@@H](Cc1ccccc1)C(=O)N[C@@H](CO)C(=O)N1Cc2ccccc2C[C@@H]1C(=O)N1C[C@@H](Sc2ccccc2)C[C@H]1C(=O)N[C@@H](CCCNC(=N)N)C(=O)O (H-[dR]RP[Hyp]GFS[dTic][X1]R-OH)", "bradykinin receptor (Cavia porcellus)", 10.22],
  ["N=C(N)NCCC[C@@H](N)C(=O)N[C@@H](CCCNC(=N)N)C(=O)N1CCC[C@H]1C(=O)N1C[C@H](O)C[C@H]1C(=O)NCC(=O)N[C@@H](Cc1ccccc1)C(=O)N[C@@H](CO)C(=O)N1Cc2ccccc2C[C@@H]1C(=O)N1C[C@@H](Oc2ccccc2[N+](=O)[O-])C[C@H]1C(=O)N[C@@H](CCCNC(=N)N)C(=O)O (H-[dR]RP[Hyp]GFS[dTic][X2]R-OH)", "bradykinin receptor (Cavia porcellus)", 8.42]
]}

// each molecule listed below needs its pKi
1. CCO[C@H]1C[C@@H](C(=O)N[C@@H](CCCNC(=N)N)C(=O)O)N(C(=O)[C@H]2Cc3ccccc3CN2C(=O)[C@H](CO)NC(=O)[C@H](Cc2ccccc2)NC(=O)CNC(=O)[C@@H]2C[C@@H](O)CN2C(=O)[C@@H]2CCCN2C(=O)[C@H](CCCNC(=N)N)NC(=O)[C@H](N)CCCNC(=N)N)C1 (H-[dR]RP[Hyp]GFS[dTic][cisHyp](Et)R-OH)
2. CCO[C@@H]1C[C@@H](C(=O)N[C@@H](CCCNC(=N)N)C(=O)O)N(C(=O)[C@H]2Cc3ccccc3CN2C(=O)[C@H](CO)NC(=O)[C@H](Cc2ccccc2)NC(=O)CNC(=O)[C@@H]2C[C@@H](O)CN2C(=O)[C@@H]2CCCN2C(=O)[C@H](CCCNC(=N)N)NC(=O)[C@H](N)CCCNC(=N)N)C1 (H-[dR]RP[Hyp]GFS[dTic][Hyp](Et)R-OH)
3. CCCO[C@@H]1C[C@@H](C(=O)N[C@@H](CCCNC(=N)N)C(=O)O)N(C(=O)[C@H]2Cc3ccccc3CN2C(=O)[C@H](CO)NC(=O)[C@H](Cc2cccs2)NC(=O)CNC(=O)[C@@H]2C[C@@H](O)CN2C(=O)[C@@H]2CCCN2C(=O)[C@H](CCCNC(=N)N)NC(=O)[C@H](N)CCCNC(=N)N)C1

Output line:
1: 8.38; 2: 8.26; 3: 8.31

Below is a list of molecules. For each, state its recorded pKi.
1. N=C(N)NCCC[C@@H](N)C(=O)N[C@@H](CCCNC(=N)N)C(=O)N1CCC[C@H]1C(=O)N1C[C@H](O)C[C@H]1C(=O)NCC(=O)N[C@@H](Cc1ccccc1)C(=O)N[C@@H](CO)C(=O)N1Cc2ccccc2C[C@@H]1C(=O)N1C[C@@H](OCC2CCCCC2)C[C@H]1C(=O)N[C@@H](CCCNC(=N)N)C(=O)O (H-[dR]RP[Hyp]GFS[dTic][cisHyp](Cyclohexylmethyl)R-OH)
2. CCCO[C@H]1C[C@@H](C(=O)N[C@@H](CCCNC(=N)N)C(=O)O)N(C(=O)[C@H]2Cc3ccccc3CN2C(=O)[C@H](CO)NC(=O)[C@H](Cc2cccs2)NC(=O)CNC(=O)[C@@H]2C[C@@H](O)CN2C(=O)[C@@H]2CCCN2C(=O)[C@H](CCCNC(=N)N)NC(=O)[C@H](N)CCCNC(=N)N)C1
3. CO[C@H]1C[C@@H](C(=O)N[C@@H](CCCNC(=N)N)C(=O)O)N(C(=O)[C@H]2Cc3ccccc3CN2C(=O)[C@H](CO)NC(=O)[C@H](Cc2cccs2)NC(=O)CNC(=O)[C@@H]2C[C@@H](O)CN2C(=O)[C@@H]2CCCN2C(=O)[C@H](CCCNC(=N)N)NC(=O)[C@H](N)CCCNC(=N)N)C1

Output line:
7.88
8.80
8.74
